- Test system: OVCAR-8
- test protocol: Cytotoxicity against human OVCAR8 cells after 48 hrs by SRB assay
- Assay type: functional
- run parameters: OVCAR-8, 48 h
Entries whose GI50 is below 0.9 µM take Condition met; entries at or above 0.9 µM take Condition not met.

INSERT INTO measurements (molecule, test_system, class_name) VALUES
  ('COc1cccc2c1C(=O)c1c(O)c3c(c(O)c1C2=O)C[C@@](O)(C(=O)CO)C[C@@H]3O[C@H]1C[C@H](N)[C@H](O)[C@H](C)O1 [DOXORUBICIN]', 'OVCAR-8', 'Condition met'),
  ('COc1cc(C2CC(c3cccc(Nc4ccnc5cc(Cl)ccc45)c3)=NN2C=O)cc(OC)c1OC (stereo unspecified)', 'OVCAR-8', 'Condition not met'),
  ('COc1cc(C2CC(c3ccc(Nc4ccnc5cc(Cl)ccc45)cc3)=NN2C=O)cc(OC)c1OC (stereo unspecified)', 'OVCAR-8', 'Condition not met'),
  ('O=CN1N=C(c2ccc(Nc3ccnc4cc(Cl)ccc34)cc2)CC1c1ccc(Cl)cc1 (stereo unspecified)', 'OVCAR-8', 'Condition not met'),
  ('O=CN1N=C(c2cccc(Nc3ccnc4cc(Cl)ccc34)c2)CC1c1ccccc1 (stereo unspecified)', 'OVCAR-8', 'Condition met');

// query Input O=CN1N=C(c2ccc(Nc3ccnc4cc(Cl)ccc34)cc2)CC1c1ccccc1 (stereo unspecified) ; condition: GI50 strictly below 0.9 µM. Does it hold?
// result Condition not met

// query Hello, I'm reviewing records and need to know if GI50 of COc1ccc(C2CC(c3ccc(Nc4ccnc5cc(Cl)ccc45)cc3)=NN2C=O)cc1 (stereo unspecified) is below 0.9 µM. Could you check?
// result Condition not met

// query Just wondering, is GI50 of COc1ccc(C2CC(c3cccc(Nc4ccnc5cc(Cl)ccc45)c3)=NN2C=O)cc1 (stereo unspecified) below 0.9 µM?
// result Condition not met

// query Identify whether the molecule Cc1ccc(C2CC(c3ccc(Nc4ccnc5cc(Cl)ccc45)cc3)=NN2C=O)cc1 (stereo unspecified) records GI50 below 0.9 µM.
// result Condition not met

// query Given the entry CC(=O)N1N=C(c2ccc(Nc3ccnc4cc(Cl)ccc34)cc2)CC1c1ccc(Cl)cc1 (stereo unspecified) , would its reported GI50 be below 0.9 µM?
// result Condition not met

// query Consider the molecule O=CN1N=C(c2cccc(Nc3ccnc4cc(Cl)ccc34)c2)CC1c1ccc(Cl)cc1 (stereo unspecified) . Is its GI50 strictly less than 0.9 µM?
// result Condition not met
